- Test system: UO-31
- test.method.notes: Growth inhibition of human UO-31 cells incubated for 48 hrs by sulforhodamine B assay
- Format: functional
observation.type: GI50 (µM)
Numeric answer only, unit µM assumed.

The examples below pair each entry with its known result.
>>> assay_value("Cc1ccc(NC(=O)c2sc3nc4c(cc3c2N)C(=O)CCC4)cc1C")
0.0505
>>> assay_value("CCc1ccccc1NC(=O)c1sc2nc3c(cc2c1N)C(=O)CCC3")
14.8
>>> assay_value("CN1CCc2nc3sc(C(N)=O)c(N)c3c(-c3cccs3)c2C1")
3.47

Moving on to another compound below.
The compound identified as Nc1c(C(=O)Nc2ccccc2)sc2nc3c(cc12)CN(Cc1ccccc1)CC3 registered its GI50 at 6.14
